experiment: activity coefficient (dimensionless); of the first substance listed, at infinite dilution; xn = mol fraction of the nth substance listed; details: 313.15 K; 100 kPa; Liquid; Chemical equilibration / Heterogeneous equilibration; x1 = 0
property: activity coefficient
Response field accepts a number only; no unit should be typed.

molecule	dataValue
O [water] + Clc1ccccc1	235

Task: Entry under review: O [water] + CCOc1ccccc1 . Reported activity coefficient?
Result: 77.7

Task: Entry under review: O [water] + Cc1ccccc1 . Reported activity coefficient?
Result: 214

Task: Entry under review: O [water] + COc1ccccc1 . Reported activity coefficient?
Result: 68.8

Task: Entry under review: O [water] + Brc1ccccc1 . Reported activity coefficient?
Result: 226

Task: Entry under review: O [water] + FC(F)(F)c1ccccc1 . Reported activity coefficient?
Result: 218

Task: Entry under review: O [water] + COc1ccc(Br)cc1 . Reported activity coefficient?
Result: 83.3

====

assay: activity coefficient (dimensionless); of the first substance listed, at infinite dilution; xn = mol fraction of the nth substance listed; details: 318.15 K; 100 kPa; Liquid; Chemical equilibration / Heterogeneous equilibration; x1 = 0
property: activity coefficient
Response field accepts a number only; no unit should be typed.

Take a look at these entries with their results.
molecule	dataValue
O [water] + FC(F)(F)c1ccccc1	181
O [water] + Cc1ccccc1	184
O [water] + Brc1ccccc1	189

Task: Entry under review: O [water] + Clc1ccccc1 . Reported activity coefficient?
Result: 202

Task: Entry under review: O [water] + COc1ccccc1 . Reported activity coefficient?
Result: 61.7

Task: Entry under review: O [water] + COc1ccc(Br)cc1 . Reported activity coefficient?
Result: 74.1

Task: Entry under review: O [water] + CCOc1ccccc1 . Reported activity coefficient?
Result: 69.9

====

test: activity coefficient (dimensionless); of the first substance listed, at infinite dilution; xn = mol fraction of the nth substance listed; settings: 308.15 K; 100 kPa; Liquid; Chemical equilibration / Heterogeneous equilibration; x1 = 0
property: activity coefficient
Response field accepts a number only; no unit should be typed.

Take a look at these entries with their results.
compound	activity coefficient
O [water] + COc1ccccc1	75.8
O [water] + CCOc1ccccc1	87.3
O [water] + COc1ccc(Br)cc1	93.7

Task: Entry under review: O [water] + Brc1ccccc1 . Reported activity coefficient?
Result: 264

Task: Entry under review: O [water] + Clc1ccccc1 . Reported activity coefficient?
Result: 271

Task: Entry under review: O [water] + FC(F)(F)c1ccccc1 . Reported activity coefficient?
Result: 256
